Origin of values: patent US9758526B2

System: HCC827 expressing EGFR (d746-750)
test_summary: Growth inhibition, HCC827 expressing EGFR (d746-750)
Format: cell-based
cond: Homo sapiens, HCC827, 72 h; cultured three days, CellTiter-Glo
reported_property: GI50 (nM)

Below, each entry is followed by its recorded GI50 result.
{"molecule": "C=CC(=O)N(C)[C@@H]1CC(=C)c2c(-c3cnc4ccccc4c3)c3c(N)ncnc3n2C1 [Example 22]", "GI50 / nM": 5.7}
{"molecule": "C=CC(=O)N[C@@H]1C=C(C)c2c(-c3cnc4ccccc4c3)c3c(N)ncnc3n2C1 [Example 16]", "GI50 / nM": 27}
{"molecule": "C=CC(=O)N[C@H]1C=Cc2c(-c3cnc4ccccc4c3)c3c(N)ncnc3n2CC1 [Example 28]", "GI50 / nM": 14}

P = C=CC(=O)N(C)[C@@H]1Cn2c(c(-c3cnc4ccccc4c3)c3c(N)ncnc32)C1=C [Example 26]
Q = C=CC(=O)N[C@H]1CC(C)c2c(-c3cnc4ccccc4c3)c3c(N)ncnc3n2C1 (some centres unmarked) [Example 29]
Data request: Determine, for P and Q , which has the greater value of GI50. Write down the label of the entry you select.
Data returned: Q
(Q: 89 nM, P: 18.4 nM)

----------
Record type: GI50 measurement. Applies to: HCC827 expressing EGFR (d746-750)
reported_property: GI50 (nM)

{"molecule": "C=C1c2c(-c3cnc4ccccc4c3)c3c(N)ncnc3n2C[C@H]1NC(=O)C#CC [Example 9]", "experimental_target": "HCC827 expressing EGFR (d746-750)", "reported_property": "GI50", "measured_value": 7.5}

I = C=C1c2c(-c3cnc4ccccc4c3)c3c(N)ncnc3n2C[C@H]1NC(=O)/C=C/CN(C)CC [Example 11]
II = C=CC(=O)N[C@H]1Cn2c(c(-c3cnc4ccccc4c3)c3c(N)ncnc32)C1=C [Example 25]
III = C=CC(=O)N[C@H]1C=Cc2c(-c3cnc4ccccc4c3)c3c(N)ncnc3n2C1 [Example 27]
Data request: List the 3 entries from lowest GI50 to highest GI50 value. The reply should contain the labels ordered as requested.
Data returned: I, III, II
(I: 9.7 nM, III: 15 nM, II: 260 nM)

----------
Test system: NCI-H1975 expressing EGFR (T790M/L858R)
test_summary: Growth inhibition, NCI-H1975 expressing EGFR (T790M/L858R)
Format: cell-based
cond: Homo sapiens, NCI-H1975, 72 h; cultured three days, CellTiter-Glo
Protocol: (1) A human […] lung cancer cell line NCI-H1975 expressing EGFR (T790M/L858R), (2) a human non-small cell lung cancer cell line HCC827 expressing EGFR (d746-750), and (3) a human epithelioid cancer cell line A431 expressing EGFR (WT) were each suspended in complete growth medium recommended by ATCC. […] For each cell, the cell growth inhibition rates of the wells to which the test compounds at various concentrations were added were calculated by the following formula. […]
reported_property: GI50 (nM)

Below, each entry is followed by its recorded GI50 result.
{"molecule": "C=CC(=O)N[C@H]1C/C(=C\\C)c2c(-c3cnc4ccccc4c3)c3c(N)ncnc3n2C1", "experimental_target": "NCI-H1975 expressing EGFR (T790M/L858R)", "units_symbol": "nM", "GI50": 49}
{"molecule": "C=CC(=O)N[C@H]1C=Cc2c(-c3cnc4ccccc4c3)c3c(N)ncnc3n2C1", "experimental_target": "NCI-H1975 expressing EGFR (T790M/L858R)", "units_symbol": "nM", "GI50": 110}
{"molecule": "C=C1c2c(-c3cnc4ccccc4c3)c3c(N)ncnc3n2C[C@H]1NC(=O)/C=C/CN(C)C", "experimental_target": "NCI-H1975 expressing EGFR (T790M/L858R)", "units_symbol": "nM", "GI50": 140}
{"molecule": "C=C1c2c(-c3cnc4ccccc4c3)c3c(N)ncnc3n2C[C@H]1NC(=O)/C=C\\Cl", "experimental_target": "NCI-H1975 expressing EGFR (T790M/L858R)", "units_symbol": "nM", "GI50": 54}

1 = C=CC(=O)N(C)[C@@H]1C=C(C)c2c(-c3cnc4ccccc4c3)c3c(N)ncnc3n2C1
2 = C=CC(=O)N(C)[C@@H]1Cn2c(c(-c3cnc4ccccc4c3)c3c(N)ncnc32)C1=C
Data request: Determine, for 1 and 2 , which has the greater value of GI50. Write down the label of the entry you select.
Data returned: 2
(2: 150 nM, 1: 47 nM)

I = C=CC(=O)N(C)[C@@H]1CC(=C)c2c(-c3cnc4ccccc4c3)c3c(N)ncnc3n2C1
II = C=C1c2c(-c3cnc4ccccc4c3)c3c(N)ncnc3n2C[C@H]1NC(=O)C=CC (mixture of isomers)
Data request: For I and II , which recorded GI50 is lower? Write down the label of the entry you select.
Data returned: I
(I: 56 nM, II: 560 nM)
